Measured % solids dissolved in Et-LGK at room temperature, no precipitation of individual entries
- experiment: Solubility of active agents in neat alkyl ketal esters (dissolution, storage at room temperature)
- condition-context: solvent Et-LGK; still soluble after storage at room temperature (24 hours to 5 days) where stated
Answer in %, number only, no unit symbol.

// known answers, use as guide
molecule: Oc1ccc(C=Cc2cc(O)cc(O)c2)cc1 [Resveratrol]
unit-of-measure: %
obs-value: 1

molecule: O=C(O)c1ccccc1O [salicylic acid, Salicylic acid]
unit-of-measure: %
obs-value: 15

molecule: COc1cc2c(cc1O)CCC(C)(C)O2 [Dimethylmethoxy Chromanol]
unit-of-measure: %
obs-value: 2.5

molecule: COc1cc(CCC(=O)CC(=O)CCc2ccc(O)c(OC)c2)ccc1O [Tetrahydrocurcuminoids, tetrahydrodiferuloylmethane]
unit-of-measure: %
obs-value: 20

Note: attention shifts to another entry.
Query: I have this molecule here, O=C(CCCCc1ccc2c(c1)OCO2)N1CCCCC1 [Tetrahydropiperine] , and I need its recorded % solids dissolved in Et-LGK at room temperature, no precipitation.
Reply: 20
